- test: Circulating berberine after chronic administration by various routes (Example 23)
- Assay type: in vivo
- measurementContext: male, rat, plasma, oral, 180 mg/kg/dose; 15 days administration BID, Zucker fa/fa rats
attributeMeasured: concentration at 15 days (ng/mL)

[[record]]
smilesstr = "COc1ccc2cc3[n+](cc2c1OC)CCc1cc2c(cc1-3)OCO2"
valueunits = "ng/mL"
recordednumber = 101


###

- test: physchem
- Assay type: physicochemical
attributeMeasured: logD

[[record]]
molecule = "COc1ccc2cc3[n+](cc2c1OC)CCc1cc2c(cc1-3)OCO2 [berberine, Berberine]"
attributemeasured = "logD"
recordednumber = -0.63

